Cited source: patent US20240092784A1

EXPERIMENTAL_TARGET: human SPR (Homo sapiens (Human))
Sequence (P35270 whole entry): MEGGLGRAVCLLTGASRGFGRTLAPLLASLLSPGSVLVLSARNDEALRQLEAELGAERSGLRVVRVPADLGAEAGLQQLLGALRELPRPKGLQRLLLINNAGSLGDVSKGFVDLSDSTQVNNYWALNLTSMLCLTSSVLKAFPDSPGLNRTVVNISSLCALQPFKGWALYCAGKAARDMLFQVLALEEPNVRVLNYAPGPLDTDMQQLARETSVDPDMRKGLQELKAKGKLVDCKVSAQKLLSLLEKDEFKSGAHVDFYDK
ASSAY_SUMMARY: Evaluation Example 2: Measurement of human SPR inhibitory activity (seven concentrations, sepiapterin absorbance at 420 nm)
Assay type: biochemical
RUN_CONDITIONS: Evaluation Example 2, seven concentrations 0.14 nM to 100 nM, 240 minutes at room temperature, read-out: IC50
Counter-ions that a name gives are not always drawn.
Could you please classify the records by IC50 using these ranges: class 1 (below 0.8 nM), class 2 (0.8 nM to below 1 nM), class 3 (1 nM or more)

[
  {
    "MOLECULE": "Cc1nn2c(O)c(C(=O)NC3CC3)c(=O)n(CC(C)C)c2c1/C=C/C(=O)N1C[C@H](C)OC[C@H]1C [Synthesis Example 646]",
    "QUALITATIVE_LABEL": "class 2"
  }
]

Task: Band for CN(C)/C=N/c1cc2n(CC(C)(C)C)c(=O)c(C(=O)NC3CC3)c(O)n2n1 [Synthesis Example 362, hydrochloride] ?
Result: class 3

Task: Band for CC(C)Cn1c(=O)c(C(=O)NC2CC2)c(O)n2ncc(/C=C/C(=O)N3[C@@H](C)CC[C@@H]3C)c12 ?
Result: class 3

Task: Band for Cc1nn2c(O)c(C(=O)NC3CC3)c(=O)n(CC(C)(C)C)c2c1/C=C/C(=O)N1CCOCC1 ?
Result: class 1

Task: Band for CC(C)Cn1c(=O)c(C(=O)NC2CC2)c(O)n2ncc(/C=C/C(=O)N3CCC[C@@H]3C(F)F)c12 ?
Result: class 3
